Tested on: U2OS
Experimental Details: Multiplex assay against U2OS
Format: toxicity, cell-based
Conditions Used: human, 48 h, 1 µM, compound concentration 1 uM, replicate 1
For each record, check the reported Population Fragmented Nuclei (%): if it is below 20% write MET, else write NOT MET.

Regarding `C=CCN1C[C@H](C(=O)N(CCCN(C)C)C(=O)NCC)C[C@@H]2c3cccc4[nH]cc(c34)C[C@H]21` , kindly confirm whether its Population Fragmented Nuclei (%) is beneath 20%.
MET

Let us now turn to `COC(c1ccccc1)(c1ccccc1)[C@H](Oc1nc(C)cc(C)n1)C(=O)O`
MET

Also, `Cc1cc(NC(=O)NCCN2CCC(O)(Cc3ccccc3)CC2)c2ccccc2n1` please.
NOT MET

Item: `CN1CCC(C(=O)c2cccc(NC(=O)c3c(F)cc(F)cc3F)n2)CC1`
MET

Next record, please: `COc1cc(OC2CCN(C(C)=O)CC2)ccc1C(=O)N1CCC(N2C(=O)OCc3ccccc32)CC1`
MET

Check `COc1cc(Nc2ncc3c(n2)-c2ccc(Cl)cc2C(c2c(F)cccc2OC)=NC3)ccc1C(=O)O` too.
NOT MET

Record: `COc1ccc2c(c1OCc1ccccc1)C[C@@H](C(=O)O)N(C(=O)C(c1ccccc1)c1ccccc1)C2`
NOT MET

Repeat for the following molecule: `Nc1nc(CC(=O)Nc2ccc(CCNC[C@H](O)c3ccccc3)cc2)cs1`
MET

`CC(C)C[C@H](CO)Nc1nc(S[C@@H](C)c2ccccc2)nc2nc(N)sc12` ?
MET

What about O=C(NCCNCC(O)COc1ccc(O)cc1)N1CCOCC1.O=C(NCCNCC(O)COc1ccc(O)cc1)N1CCOCC1.O=C(O)/C=C/C(=O)O (stereo not drawn) [XAMOTEROL FUMARATE] ?
MET

// next record `Cc1cc(=O)n(C)c2cc(N3C(=O)CC[C@H](NS(=O)(=O)CC(C)C)[C@H]3c3ccc(Cl)cc3)ccc12`
MET

Would you mind doing `Cc1nn(C)c2nc(NNC(=O)Nc3cc(Cl)nc(Cl)c3)cc(C(C)C)c12` as well?
MET

Consider next the molecule `S=C(NCCCc1c[nH]cn1)NCCCN(Cc1ccc(Cl)c(Cl)c1)c1ccc(Br)cn1` in the same way.
MET

What do you get for `N[C@](CC1c2ccccc2Oc2ccccc21)(C(=O)O)[C@H]1C[C@@H]1C(=O)O` ?
MET

Queued: `OCCCNc1cc(-c2ccnc(Nc3cccc(Cl)c3)n2)ccn1`
NOT MET

// same read-out, input: `COc1cc(C(=O)N2CC[C@@H](O)[C@@H](N)C2)cc2nc(-c3cc4ccccc4n3CC3CC3)n(C)c12.Cl`
NOT MET

Now give it for CCn1c(-c2nc3cc(C(=O)N4CCCC(N)C4)ccc3n2C)cc2ccccc21.Cl (stereo not drawn) too.
MET

Thanks! And `O=C(Nc1cc(-c2ccccc2)nn1-c1ccccc1F)c1ccc([N+](=O)[O-])cc1` ?
MET

// next record `Cc1c(Cc2ccc3ccccc3n2)c2cc(F)ccc2n1CC(=O)O`
MET

Again, but for CN1C[C@H](C(=O)N[C@]2(C)O[C@@]3(O)[C@@H]4CCCN4C(=O)[C@H](Cc4ccccc4)N3C2=O)C[C@@H]2c3cccc4[nH]cc(c34)C[C@H]21.CS(=O)(=O)O [DIHYDROERGOTAMINE MESYLATE]
MET
